system: OVCAR-5 ovarian; test: NCI-60 one-dose screen, 48 h (100 = growth as untreated, 0 = no growth, -100 = all killed); settings: 10 µM unless noted
This is part of a sample that, as a whole, favours compounds with a hit. Of some 83,000 tested, about 20% had one in any assay. Active and inactive are the calls of the source. How the source made its calls: active means growth percent below 10; inactive means the rest.
// values below are reported growth

The following compounds have reported results that may help.
# compound, growth
records = [
    ("O=C(NNc1nc2cc(F)ccc2n2c(CN3CCC(O)C3)ccc12)c1cnccn1 (configuration not stated)", "41.4% (inactive)"),
    ("CCOc1ccccc1NC1=C(Cl)C(=O)c2nc(C)ccc2C1=O", "40.8% (inactive)"),
    ("NC(N)=Nc1ccc(Oc2cccc(Oc3ccc(Cl)c(C(F)(F)F)c3)c2)cn1", "-74.5% (active)"),
    ("CC1(C)[C@@H](O)CC[C@]2(C)[C@H]3CC[C@@H]4[C@H]5[C@H](C(=O)/C=C\\c6ccc([N+](=O)[O-])cc6)CC[C@]5(O)CC[C@@]4(C)[C@]3(C)CC[C@@H]12", "92% (inactive)"),
]

Read off the recorded growth for C=C(C)[C@@H]1CC[C@]2(COC)CC[C@]3(C)[C@H](CC[C@@H]4[C@@]5(C)CCCNC(C)(C)[C@@H]5CC[C@]43C)[C@@H]12 75.5% (inactive)

Tell me measured growth for COc1cccc2c1CN(C(=O)c1ccc(O)c(C(=O)N3Cc4ccc(OCCC[P+](c5ccccc5)(c5ccccc5)c5ccccc5)cc4C3)c1)C2 please. 123% (inactive)

Answer with the recorded growth for the compound listed here: Nc1ccccc1NC(=O)c1ccc(NC(=O)C/C=C/c2cccnc2)cc1 29.7% (inactive)

Using known records, supply growth for C[C@@H](Nc1ncnc2ccc(-c3cnc(Cl)c(NS(C)(=O)=O)c3)cc12)c1ccccc1 38.4% (inactive)

// Input: O=c1[nH]c2ccccc2cc1CSc1ccccc1Nc1nccc(-c2ccc(Cl)cc2)n1 . Output its growth only. 110% (inactive)

Look up growth of CC1(C)[C@@H](O)CC[C@]2(C)[C@H]3CC[C@@H]4[C@H]5[C@H](C(=O)/C=C\c6ccccn6)CC[C@]5(O)CC[C@@]4(C)[C@]3(C)CC[C@@H]12 and report it. 48.4% (inactive)
